Source listed as PubChem BioAssay AID1845219.

- System: SYO-1 tumor spheroids, viability % test/control
- assay name: Anticancer human tumor SYO-1 cell line growth inhibition;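 further: spheroids exposed to agents for 7 days before viability read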;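 on viability, T/C: 100% = DMSO vehicle control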
- assay setup: second compound 0.00949 µM; first compound 0.3 µM; stronger effect = lower value; spheroids with HUVEC and MSC
Exercise: for every item that follows, state its recorded viability, T/C.
Answers are plain numbers, in %.

Solved entries (count: 3):
- compound: "Cc1sc2c(c1C)C(c1ccc(Cl)cc1)=NC(CC(=O)Nc1ccc(O)cc1)c1nnc(C)n1-2 (centres undefined) + CC[C@@]1(O)C(=O)OCc2c1cc1n(c2=O)Cc2cc3c(CN(C)C)c(O)ccc3nc2-1"
  readout: "viability, T/C"
  readout number: 1.31
- compound: "CNCc1ccc(-c2cc(-c3nc(-c4ccc(S(=O)(=O)C(C)C)cc4)cnc3N)on2)cc1 + CC[C@@]1(O)C(=O)OCc2c1cc1n(c2=O)Cc2cc3c(CN(C)C)c(O)ccc3nc2-1"
  readout: "viability, T/C"
  readout number: 1.53
- compound: "Cn1ncnc1[C@H]1c2n[nH]c(=O)c3cc(F)cc(c23)N[C@@H]1c1ccc(F)cc1 + CC[C@@]1(O)C(=O)OCc2c1cc1n(c2=O)Cc2cc3c(CN(C)C)c(O)ccc3nc2-1"
  readout: "viability, T/C"
  readout number: 1.41

Per the record, O=C(c1cc(Cc2n[nH]c(=O)c3ccccc23)ccc1F)N1CCN(C(=O)C2CC2)CC1 + CC[C@@]1(O)C(=O)OCc2c1cc1n(c2=O)Cc2cc3c(CN(C)C)c(O)ccc3nc2-1 has viability, T/C of 2.35

###

- Tested on: SYO-1 tumor spheroids, viability % test/control
- assay name: Anticancer human tumor SYO-1 cell line growth inhibition; active = viability on the fitted dose curve at most 10% of control; inactive = the rest;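 further: spheroids exposed to agents for 7 days before viability read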
- assay setup: second compound 3.16 µM; first compound 0.0949 µM; spheroids with HUVEC and MSC
I would appreciate it if you answered using one of these outcomes: Y (active), N (inactive)

- compound: "CNCc1ccc(-c2cc(-c3nc(-c4ccc(S(=O)(=O)C(C)C)cc4)cnc3N)on2)cc1 + Cn1nnc2c(C(N)=O)ncn2c1=O"
  group: "N"
- compound: "O=C(c1cc(Cc2n[nH]c(=O)c3ccccc23)ccc1F)N1CCN(C(=O)C2CC2)CC1 + Cn1nnc2c(C(N)=O)ncn2c1=O"
  group: "N"
- compound: "Cn1ncnc1[C@H]1c2n[nH]c(=O)c3cc(F)cc(c23)N[C@@H]1c1ccc(F)cc1 + Cn1nnc2c(C(N)=O)ncn2c1=O"
  group: "Y"

Challenge: Can you look up the reported call for Cc1sc2c(c1C)C(c1ccc(Cl)cc1)=NC(CC(=O)Nc1ccc(O)cc1)c1nnc(C)n1-2 (centres undefined) + Cn1nnc2c(C(N)=O)ncn2c1=O for me?
Response given: N

###

- Test system: SYO-1 tumor spheroids, viability % test/control
- assay name: Anticancer human tumor SYO-1 cell line growth inhibition;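 further: spheroids exposed to agents for 7 days before viability read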
- assay setup: curve of first compound; second compound 0.00949 µM; spheroids with HUVEC and MSC
pIC50: −log10 of the molar value.
readout: pIC50

- compound: "Cn1ncnc1[C@H]1c2n[nH]c(=O)c3cc(F)cc(c23)N[C@@H]1c1ccc(F)cc1 + CC[C@@]1(O)C(=O)OCc2c1cc1n(c2=O)Cc2cc3c(CN(C)C)c(O)ccc3nc2-1"
  target of assay: "SYO-1 tumor spheroids, viability % test/control"
  pIC50: "> 8.02"
- compound: "Cc1sc2c(c1C)C(c1ccc(Cl)cc1)=NC(CC(=O)Nc1ccc(O)cc1)c1nnc(C)n1-2 (stereo not drawn) + CC[C@@]1(O)C(=O)OCc2c1cc1n(c2=O)Cc2cc3c(CN(C)C)c(O)ccc3nc2-1"
  target of assay: "SYO-1 tumor spheroids, viability % test/control"
  pIC50: "> 8.02"

Next:
Per the record, COc1ccc([C@@H](O)c2cc(-c3ncnc4cc(N5CCOCC5)ccc34)c(F)cc2Cl)nn1 + CC[C@@]1(O)C(=O)OCc2c1cc1n(c2=O)Cc2cc3c(CN(C)C)c(O)ccc3nc2-1 has pIC50 of > 7.50

###

- Tested on: SYO-1 tumor spheroids, viability % test/control
- assay name: Anticancer human tumor SYO-1 cell line growth inhibition;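 further: spheroids exposed to agents for 7 days before viability read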
- assay setup: curve of first compound; second compound 0.0003 µM; spheroids with HUVEC and MSC
pIC50: −log10 of the molar value.
Exercise: for every item that follows, state its recorded pIC50.

Solved entries (count: 9):
- compound: "CC1COCCN1c1cc(-c2ccnn2C)c2ccnc(-c3ccn[nH]3)c2n1 (stereo not given) + COc1cc2c(cc1O)CCNC21CSC2c3c(OC(C)=O)c(C)c4c(c3C(COC1=O)N1C(O)C3Cc5cc(C)c(OC)c(O)c5C(C21)N3C)OCO4"
  readout: "pIC50"
  result: "> 7.50"
- compound: "Cc1sc2c(c1C)C(c1ccc(Cl)cc1)=NC(CC(=O)Nc1ccc(O)cc1)c1nnc(C)n1-2 (stereo not given) + COc1cc2c(cc1O)CCNC21CSC2c3c(OC(C)=O)c(C)c4c(c3C(COC1=O)N1C(O)C3Cc5cc(C)c(OC)c(O)c5C(C21)N3C)OCO4"
  readout: "pIC50"
  result: "> 8.02"
- compound: "Cn1ncnc1[C@H]1c2n[nH]c(=O)c3cc(F)cc(c23)N[C@@H]1c1ccc(F)cc1 + COc1cc2c(cc1O)CCNC21CSC2c3c(OC(C)=O)c(C)c4c(c3C(COC1=O)N1C(O)C3Cc5cc(C)c(OC)c(O)c5C(C21)N3C)OCO4"
  readout: "pIC50"
  result: "> 8.02"
- compound: "CNCc1ccc(-c2cc(-c3nc(-c4ccc(S(=O)(=O)C(C)C)cc4)cnc3N)on2)cc1 + COc1cc2c(cc1O)CCNC21CSC2c3c(OC(C)=O)c(C)c4c(c3C(COC1=O)N1C(O)C3Cc5cc(C)c(OC)c(O)c5C(C21)N3C)OCO4"
  readout: "pIC50"
  result: "> 8.02"
- compound: "COc1ccc([C@@H](O)c2cc(-c3ncnc4cc(N5CCOCC5)ccc34)c(F)cc2Cl)nn1 + COc1cc2c(cc1O)CCNC21CSC2c3c(OC(C)=O)c(C)c4c(c3C(COC1=O)N1C(O)C3Cc5cc(C)c(OC)c(O)c5C(C21)N3C)OCO4"
  readout: "pIC50"
  result: "> 7.50"
- compound: "Cc1cc(C)c(CNC(=O)c2cc(-c3ccc(CN4CCOCC4)cc3)cc3c2cnn3C2CCCC2)c(=O)[nH]1 + COc1cc2c(cc1O)CCNC21CSC2c3c(OC(C)=O)c(C)c4c(c3C(COC1=O)N1C(O)C3Cc5cc(C)c(OC)c(O)c5C(C21)N3C)OCO4"
  readout: "pIC50"
  result: "> 7.50"
- compound: "O=C(c1cc(Cc2n[nH]c(=O)c3ccccc23)ccc1F)N1CCN(C(=O)C2CC2)CC1 + COc1cc2c(cc1O)CCNC21CSC2c3c(OC(C)=O)c(C)c4c(c3C(COC1=O)N1C(O)C3Cc5cc(C)c(OC)c(O)c5C(C21)N3C)OCO4"
  readout: "pIC50"
  result: "> 7.02"
- compound: "CC(C)n1c(=O)n(C)c2cnc3cc(F)c(-c4ccc(OCCCN5CCCCC5)nc4)cc3c21 + COc1cc2c(cc1O)CCNC21CSC2c3c(OC(C)=O)c(C)c4c(c3C(COC1=O)N1C(O)C3Cc5cc(C)c(OC)c(O)c5C(C21)N3C)OCO4"
  readout: "pIC50"
  result: "> 7.50"
- compound: "[2H]c1nc(C)nc([2H])c1-c1cc(NC[C@@H](C)c2cccc3c(C(=O)NC)ccnc23)ncn1 + COc1cc2c(cc1O)CCNC21CSC2c3c(OC(C)=O)c(C)c4c(c3C(COC1=O)N1C(O)C3Cc5cc(C)c(OC)c(O)c5C(C21)N3C)OCO4"
  readout: "pIC50"
  result: "> 7.50"

Per the record, COc1cc(C)[nH]c(=O)c1CN1CCc2c(Cl)cc(C(OC)C3COC3)c(Cl)c2C1=O (stereo not given) + COc1cc2c(cc1O)CCNC21CSC2c3c(OC(C)=O)c(C)c4c(c3C(COC1=O)N1C(O)C3Cc5cc(C)c(OC)c(O)c5C(C21)N3C)OCO4 has pIC50 of > 7.50

###

Exercise: for every item that follows, state its recorded pIC50.
- System: SYO-1 tumor spheroids, viability % test/control
- assay name: Anticancer human tumor SYO-1 cell line growth inhibition;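 further: spheroids exposed to agents for 7 days before viability read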
- assay setup: curve of first compound; second compound 100 µM; spheroids with HUVEC and MSC
pIC50: −log10 of the molar value.

Solved entries (count: 3):
- compound: "O=C(c1cc(Cc2n[nH]c(=O)c3ccccc23)ccc1F)N1CCN(C(=O)C2CC2)CC1 + Cn1nnc2c(C(N)=O)ncn2c1=O"
  target of assay: "SYO-1 tumor spheroids, viability % test/control"
  pIC50: "> 7.02"
- compound: "Cn1ncnc1[C@H]1c2n[nH]c(=O)c3cc(F)cc(c23)N[C@@H]1c1ccc(F)cc1 + Cn1nnc2c(C(N)=O)ncn2c1=O"
  target of assay: "SYO-1 tumor spheroids, viability % test/control"
  pIC50: "> 8.02"
- compound: "[2H]c1nc(C)nc([2H])c1-c1cc(NC[C@@H](C)c2cccc3c(C(=O)NC)ccnc23)ncn1 + Cn1nnc2c(C(N)=O)ncn2c1=O"
  target of assay: "SYO-1 tumor spheroids, viability % test/control"
  pIC50: "< 5.00"

Next:
Per the record, CC(C)n1c(=O)n(C)c2cnc3cc(F)c(-c4ccc(OCCCN5CCCCC5)nc4)cc3c21 + Cn1nnc2c(C(N)=O)ncn2c1=O has pIC50 of < 5.00
